Assay overview: Ratio of drug level in brain to plasma in Sprague-Dawley rat at 50 mg/kg, po after 1 hr
Format: ADME, organism-based
Condition notes: read-out: BPR

{"columns": ["Smiles representation", "Kp at 1 h"],
 "data": [
  ["COc1ccc(C(=O)c2ccc3c(ccn3Cc3ccc(C(=O)NO)cc3)c2)cc1", 1.19]
]}

###

pIC50: −log10 of the molar value.
Here's a batch of molecules along with measured pIC50 for Histone deacetylase 1 (Homo sapiens).

{"columns": ["Smiles representation", "System name", "pIC50"],
 "data": [
  ["COc1ccc(C(=O)c2ccc3c(ccn3Cc3ccc(/C=C/C(=O)NO)cc3)c2)cc1", "Histone deacetylase 1 (Homo sapiens)", 5.84],
  ["COc1cc(C(=O)c2ccc3c(ccn3S(=O)(=O)c3ccc(/C=C/C(=O)NO)cc3)c2)cc(OC)c1OC", "Histone deacetylase 1 (Homo sapiens)", 5.07],
  ["COc1ccc(C(=O)c2ccc3c(ccn3Cc3ccc(C(=O)NO)cc3)c2)cc1OC", "Histone deacetylase 1 (Homo sapiens)", 5.55],
  ["O=C(/C=C/c1cccc(S(=O)(=O)n2ccc3cc(C(=O)c4ccc(F)cc4)ccc32)c1)NO", "Histone deacetylase 1 (Homo sapiens)", 6.64],
  ["COc1ccc(C(=O)c2ccc3c(ccn3Cc3ccc(C(=O)NO)cc3)c2)cc1", "Histone deacetylase 1 (Homo sapiens)", 5.66],
  ["COc1cccc(C(=O)c2ccc3c(ccn3Cc3ccc(C(=O)NO)cc3)c2)c1", "Histone deacetylase 1 (Homo sapiens)", 5.42]
]}
